Each entry below carries its reported IC50.
molecular target: UniProt P37136

The examples below pair each entry with its known result.
C=C(C)Cn1c2c(ccc1=O)C(NCCc1ccc(Cl)c(Cl)c1)CCC2 (stereo not drawn)    5.32 µM
CCCn1c2c(ccc1=O)C(NCCc1ccccn1)CCC2 (stereo not drawn)    4.34 µM

The reported IC50 of the molecule CC(C)=CCn1c2c(ccc1=O)C(N)CCC2 (stereo not drawn) was > 100 µM

The reported IC50 of the molecule CC(C)=CCn1c2c(ccc1=O)C(NCCc1ccc(Cl)c(C(F)(F)F)c1)CCC2 (stereo not drawn) was 0.79 µM

====

Target: Acetylcholinesterase (Rattus norvegicus)
Sequence (P37136 whole entry): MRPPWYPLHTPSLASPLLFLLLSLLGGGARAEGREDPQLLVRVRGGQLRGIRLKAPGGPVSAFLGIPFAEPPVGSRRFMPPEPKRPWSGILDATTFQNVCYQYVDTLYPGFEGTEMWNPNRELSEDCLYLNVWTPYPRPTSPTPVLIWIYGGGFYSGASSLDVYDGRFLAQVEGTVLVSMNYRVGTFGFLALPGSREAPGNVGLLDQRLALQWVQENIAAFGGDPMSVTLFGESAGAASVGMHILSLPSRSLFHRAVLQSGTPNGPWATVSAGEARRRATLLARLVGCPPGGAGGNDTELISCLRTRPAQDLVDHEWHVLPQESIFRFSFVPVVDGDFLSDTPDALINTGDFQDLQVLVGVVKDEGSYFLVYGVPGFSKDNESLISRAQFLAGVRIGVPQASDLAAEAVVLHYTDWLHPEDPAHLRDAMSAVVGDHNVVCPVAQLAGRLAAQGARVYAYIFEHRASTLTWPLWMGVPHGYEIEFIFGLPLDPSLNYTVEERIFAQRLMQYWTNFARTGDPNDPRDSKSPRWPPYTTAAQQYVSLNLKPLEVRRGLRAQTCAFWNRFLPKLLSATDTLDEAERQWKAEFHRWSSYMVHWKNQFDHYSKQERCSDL
quantity_kind: pIC50
As a rule, pIC50 stands for the negative log10 of the concentration, concentration in M.

# CCCCCCn1c2c(ccc1=O)C(NCCc1ccc(Cl)c(Cl)c1)CCC2 (configuration not stated) with Acetylcholinesterase (Rattus norvegicus): pIC50 is 5.43

# CC(C)Cn1c2c(ccc1=O)C(NCCc1ccc(Cl)c(Cl)c1)CCC2 (configuration not stated) with Acetylcholinesterase (Rattus norvegicus): pIC50 is 4.63

# CC(C)=CCn1c2c(ccc1=O)C(NCCc1ccc(Cl)cc1Cl)CCC2 (configuration not stated) with Acetylcholinesterase (Rattus norvegicus): pIC50 is 6.10

# "C/C=C1\[C@H]2C=C(C)C[C@]1(N)c1ccc(=O)[nH]c1C2" with Acetylcholinesterase (Rattus norvegicus): pIC50 is 7.10

# Cn1c2c(ccc1=O)C(NCCc1ccccc1)CCC2 (configuration not stated) with Acetylcholinesterase (Rattus norvegicus): pIC50 is 4.73

# Cn1c2c(ccc1=O)C(NCCc1ccc(C(F)(F)F)cc1)CCC2 (configuration not stated) with Acetylcholinesterase (Rattus norvegicus): pIC50 is 4.89

The measurements presented in this section are drawn from ChEMBL document CHEMBL1128548.
